target.or.system: NADPH oxidase 2 (Homo sapiens) (UniProt P04839)
Sequence (P04839 whole entry, looked up): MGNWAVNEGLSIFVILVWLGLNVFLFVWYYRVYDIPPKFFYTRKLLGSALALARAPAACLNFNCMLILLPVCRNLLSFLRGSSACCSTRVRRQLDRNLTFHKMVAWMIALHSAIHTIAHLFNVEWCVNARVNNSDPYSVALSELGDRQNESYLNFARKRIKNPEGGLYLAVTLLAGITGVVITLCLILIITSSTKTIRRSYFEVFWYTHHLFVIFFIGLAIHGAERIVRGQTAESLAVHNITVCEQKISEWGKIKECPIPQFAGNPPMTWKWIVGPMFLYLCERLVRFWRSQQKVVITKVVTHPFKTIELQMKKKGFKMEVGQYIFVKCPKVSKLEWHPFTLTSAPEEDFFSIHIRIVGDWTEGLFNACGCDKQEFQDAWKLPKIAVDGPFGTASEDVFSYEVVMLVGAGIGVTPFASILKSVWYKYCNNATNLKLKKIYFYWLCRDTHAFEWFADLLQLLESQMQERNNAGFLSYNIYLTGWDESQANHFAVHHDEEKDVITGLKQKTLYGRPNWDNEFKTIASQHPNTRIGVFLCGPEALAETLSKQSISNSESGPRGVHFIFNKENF
experiment.summary: NOX2-dependent H2O2 signal modulators, primary screen, NOX inhibitor project, cell-based, HEK293-NOX2, PMA-stimulated, Amplex Red fluorescence (AID 1159); further: test concentration not given here
conditions.used: 45 min, higher = more signal, called active from +8 up or from −8 down
Assign class by z-score: not lower than -0.5 means class 1; lower than -0.5 means class 0.

Request: z-score >= -0.5 for "O=C1[C@H]2[C@H]3[C@H](O)[C@H](O)CC(=NO[C@@H]4O[C@H](CO)[C@@H](O)[C@H](O)[C@H]4O)[C@@H]3CC[C@H]2C(=O)N1C[C@@H]1CCCO1" ?
Response: class 0

Request: z-score >= -0.5 for "CC(C)(C)N1C(=O)[C@H]2[C@H]3[C@H](O)[C@H](O)CC(=NOC[C@@H](O)COCc4ccco4)[C@H]3CC[C@H]2C1=O" ?
Response: class 1

Request: z-score >= -0.5 for CCOC(=O)[C@H](Cc1ccccc1)NC(=O)CCC1CC(OC(=O)NCc2cccc3ccccc23)CC2(CCCC(COC(=O)NCCc3ccccc3OC)O2)O1 (some centres undefined) ?
Response: class 1

Request: z-score >= -0.5 for "C[C@@H](c1ccccc1)N1C(=O)[C@H]2[C@H]3[C@H](O)[C@H](O)CC(=NOC[C@@H](O)COCc4ccco4)[C@H]3CC[C@H]2C1=O" ?
Response: class 0

Request: z-score >= -0.5 for CC1(C)O[C@H]2OC([C@H](O)CON3C(=O)c4ccccc4C3=O)[C@H](O)[C@H]2O1 (some centres undefined) ?
Response: class 1

Request: z-score >= -0.5 for "CC(C)=CCCC(C)=CCON=C1C[C@@H](O)[C@@H](O)[C@@H]2[C@@H]3C(=O)N(Cc4ccc5c(c4)OCO5)C(=O)[C@@H]3CC[C@H]12" ?
Response: class 1

Request: z-score >= -0.5 for "C[C@@H](c1ccccc1)N1C(=O)[C@H]2[C@H]3[C@H](O)[C@H](O)CC(=NNC(=O)OCc4ccccc4)[C@@H]3CC[C@H]2C1=O" ?
Response: class 1

Request: z-score >= -0.5 for CCOC(=O)[C@H](Cc1ccccc1)NC(=O)CCC1CC(OC(=O)NCCc2ccc(F)cc2)CC2(CCCC(COC(=O)NCCOc3ccccc3)O2)O1 (some centres undefined) ?
Response: class 1

Request: z-score >= -0.5 for "C[C@H]1CC[C@@H](C(=O)O)N[C@@H]1c1ccc(C#Cc2ccccc2)cc1" ?
Response: class 1

Request: z-score >= -0.5 for CCOC(=O)[C@H](CC(C)C)NC(=O)CCC1CC(OC(=O)NCc2ccc3c(c2)OCO3)CC2(CCCC(COC(=O)NCCc3ccccc3OC)O2)O1 (some centres undefined) ?
Response: class 1

Request: z-score >= -0.5 for "CC(C)CON=C1C[C@@H](O)[C@@H](O)[C@@H]2[C@@H]3C(=O)N(Cc4ccc5c(c4)OCO5)C(=O)[C@@H]3CC[C@@H]12" ?
Response: class 0

Request: z-score >= -0.5 for "CC(=O)OC[C@H]1O[C@@H](ON=C(C)CCN2CCCCc3nc(C)c(C)cc32)[C@H](OC(C)=O)[C@@H](OC(C)=O)[C@@H]1OC(C)=O" ?
Response: class 0

Request: z-score >= -0.5 for "CCCNC(=O)OC[C@H]1O[C@H](CCON=C2C[C@@H](O)[C@@H](O)[C@@H]3[C@@H]4C(=O)N(CC)C(=O)[C@@H]4CC[C@@H]23)C=C[C@@H]1Oc1ccc(OC)cc1" ?
Response: class 0
